# measurement-target: human RORγ (Homo sapiens)
# Construct: human RORγ, from Ser253 to Lys518; expressed in transfected cells; host or cells: CHO cells (Chinese hamster ovary), transient co-transfection with pG5-Luc
# Sequence (P51449 253-518): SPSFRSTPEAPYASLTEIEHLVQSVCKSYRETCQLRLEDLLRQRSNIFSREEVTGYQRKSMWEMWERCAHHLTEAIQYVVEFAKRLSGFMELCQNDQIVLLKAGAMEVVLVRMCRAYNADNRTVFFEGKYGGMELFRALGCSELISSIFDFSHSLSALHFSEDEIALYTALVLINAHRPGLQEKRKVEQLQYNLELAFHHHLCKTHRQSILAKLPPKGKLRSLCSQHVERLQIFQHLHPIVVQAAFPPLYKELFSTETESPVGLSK
# method-summary: In vitro assay of inhibitory effect against RORγ transcriptional activity (GAL4-hRORγ LBD luciferase reporter gene assay in CHO cells)
# Format: cell-based
# test-parameters: value in parentheses beside the > EC50 bound; vehicle-control 0.2% DMSO alone = 100%
value-kind: hRORγ luciferase activity, %-of-control

CC(C)C1=CN(CC(C)(C)CC(=O)O)C(=O)N[C@]1(C)c1ccc(CCC(C)(C)C)c(Cl)c1 = (51%)
CC(C)C1=CN(CCC(=O)O)C(=O)N[C@]1(C)c1ccc(C2=CCC(C)(C)CC2)c(Cl)c1 = (110%)
CC(C)C1=CN(CCC(=O)O)C(=O)N[C@]1(C)c1ccc(C2CCCC2)c(Cl)c1 = (83%)
CC(C)(C)CCc1ccc([C@@]2(C)NC(=O)N([C@H]3C[C@H](C(=O)O)C3)C=C2C2CC(F)(F)C2)cc1Cl = (66%)

Query :: State its hRORγ luciferase activity, %-of-control for this molecule: CC(C)C1=CN(CCC(=O)O)C(=O)N[C@]1(C)c1ccc(CCC2CCC2)c(Cl)c1
Result :: (62%)

Query :: State its hRORγ luciferase activity, %-of-control for this molecule: CC(C)C1=CN(CCC(=O)O)C(=O)N[C@@]1(C)c1ccc(CCC2CCCCC2)c(Cl)c1
Result :: (110%)

Query :: State its hRORγ luciferase activity, %-of-control for this molecule: CC(C)C1=CN([C@H]2C[C@H](C(=O)O)C2)C(=O)N[C@]1(C)c1ccc(CCC(C)(C)C)c(Cl)c1
Result :: (59%)
